Target under test: human MrgX4 L83S (Homo sapiens, UniProt Q96LA9, L83S)
Sequence (Q96LA9 whole entry L83S): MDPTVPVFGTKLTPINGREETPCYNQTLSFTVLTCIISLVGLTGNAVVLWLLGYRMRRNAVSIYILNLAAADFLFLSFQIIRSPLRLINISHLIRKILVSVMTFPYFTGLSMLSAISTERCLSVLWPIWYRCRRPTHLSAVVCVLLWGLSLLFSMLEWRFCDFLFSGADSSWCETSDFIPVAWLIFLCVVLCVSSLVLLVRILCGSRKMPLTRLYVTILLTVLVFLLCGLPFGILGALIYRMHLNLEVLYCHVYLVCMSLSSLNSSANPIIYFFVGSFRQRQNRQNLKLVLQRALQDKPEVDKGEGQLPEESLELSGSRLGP
Run description: β-arrestin assay (CHO β-arrestin human MrgX4 L83S)
Property label: IC50

Briefly, IC50 measured for CC(C)c1cc(=O)n2c(nc3ccccc32)[nH]1 : 3.22 µM

Lab note: O=c1cc(-c2ccccc2)[nH]c2nc3ccccc3n12 gave IC50 of > 100 µM

According to the records, this compound Cc1[nH]c2nc3ccccc3n2c(=O)c1CCCl displays IC50 of 8.04 µM

# IC50 of CCCc1c(C)[nH]c2nc3ccccc3n2c1=O = 2.42 µM

// recorded IC50 for CCCc1c(CC)c(=O)n2c([nH]c3ccccc32)c1C#N : 5.54 µM

# compound Cc1cc(=O)n2c3ccccc3nc2n1Cc1ccc(Cl)cc1 ; its IC50 = > 10 µM

The compound identified as CCc1c(C(C)C)nc2n(Cc3ccccc3)c3ccc(C)cc3n2c1=O registered its IC50 at > 10 µM

The value of IC50 measured for the compound CCCc1[nH]c2nc3cc(C)c(C)cc3n2c(=O)c1CC turned out to be 1.4 µM

IC50 measured on CC(C)c1cc(=O)n2c3ccccc3n(C)c2n1 = > 100 µM

// IC50 value for Cc1[nH]c2nc3ccccc3n2c(=O)c1CCC#N : > 100 µM

The recorded IC50 for entry CCc1c(C(C)C)[nH]c2nc3ccc(C)cc3n2c1=O equals 0.147 µM

====

Field: % inhibition ± SEM. Provide a value for each of the molecules that follow.
Target under test: human MrgX4 L83S (Homo sapiens, UniProt Q96LA9, L83S)
Construct: expressed in transfected cells; host or cells: CHO beta-arrestin cells
Run description: β-arrestin assay (CHO β-arrestin human MrgX4 L83S)
Format: cell-based
Settings: test concentration not given
Expressed in %, but write only the number.

Noted % inhibition ± SEM for CCc1c(C)n(C)c2nc3ccccc3n2c1=O , tested on human MrgX4 L83S (Homo sapiens, UniProt Q96LA9, L83S): 2

Per the reported human MrgX4 L83S (Homo sapiens, UniProt Q96LA9, L83S) data, Cc1cc(=S)n2c(nc3ccccc32)[nH]1 has % inhibition ± SEM of −4

CCCCc1c(C)[nH]c2nc3ccccc3n2c1=O tested on human MrgX4 L83S (Homo sapiens, UniProt Q96LA9, L83S) gave % inhibition ± SEM: 37

# lookup: COCc1cc(=O)n2c(nc3ccccc32)[nH]1 on human MrgX4 L83S (Homo sapiens, UniProt Q96LA9, L83S), % inhibition ± SEM = −13

O=c1cc(-c2ccccc2)[nH]c2nc3ccccc3n12 tested on human MrgX4 L83S (Homo sapiens, UniProt Q96LA9, L83S) gave % inhibition ± SEM: −2

Result for O=C(O)c1cnc2[nH]c3ccccc3n2c1=O , tested on human MrgX4 L83S (Homo sapiens, UniProt Q96LA9, L83S), % inhibition ± SEM: 45

Note to self: % inhibition ± SEM of Cc1[nH]c2nc3ccccc3n2c(=O)c1CCc1ccccc1 with human MrgX4 L83S (Homo sapiens, UniProt Q96LA9, L83S) was 19

human MrgX4 L83S (Homo sapiens, UniProt Q96LA9, L83S) assay, molecule Cc1cc(=O)n2c3ccccc3nc2n1CC#N , recorded % inhibition ± SEM = 43

Record O=c1ccsc2nc3ccccc3n12 / human MrgX4 L83S (Homo sapiens, UniProt Q96LA9, L83S), % inhibition ± SEM recorded as −44

# value of % inhibition ± SEM, human MrgX4 L83S (Homo sapiens, UniProt Q96LA9, L83S), item Cc1cc(=O)n2c(n1)oc1ccccc12 = 13

Noted % inhibition ± SEM for N#CCCc1c(-c2ccccc2)[nH]c2nc3ccccc3n2c1=O , tested on human MrgX4 L83S (Homo sapiens, UniProt Q96LA9, L83S): 2

Known value: human MrgX4 L83S (Homo sapiens, UniProt Q96LA9, L83S) % inhibition ± SEM of the molecule O=C(O)Cc1cc(=O)n2c(nc3ccccc32)[nH]1 equals −18

The reported % inhibition ± SEM value, human MrgX4 L83S (Homo sapiens, UniProt Q96LA9, L83S), for O=c1ccn2c(n1)[nH]c1ccccc12 reads 0

Recorded % inhibition ± SEM for CC(C)(C)c1cc(=O)n2c(nc3ccccc32)[nH]1 on human MrgX4 L83S (Homo sapiens, UniProt Q96LA9, L83S) was 48

Note to self: % inhibition ± SEM of Cc1[nH]c2nc3ccccc3n2c(=O)c1Cc1ccccc1 with human MrgX4 L83S (Homo sapiens, UniProt Q96LA9, L83S) was 24

Note to self: % inhibition ± SEM of CCc1c(C(C)C)nc2n(Cc3ccccc3)c3cc(C)ccc3n2c1=O with human MrgX4 L83S (Homo sapiens, UniProt Q96LA9, L83S) was 40

Value (% inhibition ± SEM, human MrgX4 L83S (Homo sapiens, UniProt Q96LA9, L83S)) for record CCCCc1c(O)[nH]c2nc3ccccc3n2c1=O = 22

Lab note: molecule CC(C)c1cc(=O)n2c3ccccc3n(C)c2n1 tested on human MrgX4 L83S (Homo sapiens, UniProt Q96LA9, L83S); recorded % inhibition ± SEM was 48

Response field % inhibition ± SEM (human MrgX4 L83S (Homo sapiens, UniProt Q96LA9, L83S)) for item CCCn1c(C)cc(=O)n2c3ccccc3nc12 : 35

Noted % inhibition ± SEM for CCc1c(C(C)C)[nH]c2nc3c(C)cccc3n2c1=O , tested on human MrgX4 L83S (Homo sapiens, UniProt Q96LA9, L83S): 15

Note to self: % inhibition ± SEM of NC1=NC=NC2Nc3ccccc3N12 (stereo not drawn) with human MrgX4 L83S (Homo sapiens, UniProt Q96LA9, L83S) was 4

Form field % inhibition ± SEM for item Cc1cc(=O)n2c3ccccc3nc2n1Cc1ccccc1 on human MrgX4 L83S (Homo sapiens, UniProt Q96LA9, L83S): −5

Observed % inhibition ± SEM on human MrgX4 L83S (Homo sapiens, UniProt Q96LA9, L83S), entry CC(C)c1cc(=O)n2c(nc3cc4ccccc4cc32)[nH]1 , equals 6

Bench note, human MrgX4 L83S (Homo sapiens, UniProt Q96LA9, L83S): CNCCc1c(C)[nH]c2nc3ccccc3n2c1=O , % inhibition ± SEM reads 8
